Reference source: ChEMBL document CHEMBL3864191

protocolSummary: Cytotoxicity against human DU145 cells assessed as reduction in cell viability after 72 hrs by MTT assay
Format: functional, cell-based, DU-145
conditionDescription: Homo sapiens, DU-145, 72 h
quantityMeasured: pIC50
Give bare numbers, as −log10 of the molar value.

# example entries with known answers
### Prompt State the recorded pIC50 for this entry: Cc1cc2c(c(O)c1-c1c(C)cc3c(c1O)/C(=C/NCc1ccc4c(c1)OCO4)C(=O)C(O)=C3C(C)C)/C(=C/NCc1ccc3c(c1)OCO3)C(=O)C(O)=C2C(C)C
### Response 4.54

### Prompt State the recorded pIC50 for this entry: COC(=O)CCCCCCN/C=C1\C(=O)C(O)=C(C(C)C)c2cc(C)c(-c3c(C)cc4c(c3O)/C(=C/NCCCCCCC(=O)OC)C(=O)C(O)=C4C(C)C)c(O)c21
### Response 4.94

--- query ---
### Prompt State the recorded pIC50 for this entry: COC(=O)[C@H](CCSC)N/C=C1\C(=O)C(O)=C(C(C)C)c2cc(C)c(-c3c(C)cc4c(c3O)/C(=C/N[C@@H](CCSC)C(=O)OC)C(=O)C(O)=C4C(C)C)c(O)c21
### Response 4.75

###

protocolSummary: Cytotoxicity against mouse CT26 cells assessed as reduction in cell viability after 72 hrs by MTT assay
Format: functional, cell-based
conditionDescription: Mus musculus, CT26, 72 h
pIC50: −log10 of the molar value.
Param threshold (5) applies to pIC50; output Condition met when value >= threshold, Condition not met when value < threshold.

These recorded examples may help you get a feel for the data.
### Prompt Can Cc1cc2c(c(O)c1-c1c(C)cc3c(c1O)/C(=C/NCCCC(=O)O)C(=O)C(O)=C3C(C)C)/C(=C/NCCCC(=O)O)C(=O)C(O)=C2C(C)C be said to have pIC50 at or above 5?
### Response Condition not met

### Prompt Can Cc1cc2c(c(O)c1-c1c(C)cc3c(c1O)/C(=C/NCc1ccccc1)C(=O)C(O)=C3C(C)C)/C(=C/NCc1ccccc1)C(=O)C(O)=C2C(C)C be said to have pIC50 at or above 5?
### Response Condition not met

### Prompt Can Cc1cc2c(c(O)c1-c1c(C)cc3c(c1O)/C(=C/NC1CCC(C(C)(C)C)CC1)C(=O)C(O)=C3C(C)C)/C(=C/NC1CCC(C(C)(C)C)CC1)C(=O)C(O)=C2C(C)C (centres undefined) be said to have pIC50 at or above 5?
### Response Condition not met

### Prompt Can Cc1cc2c(c(O)c1-c1c(C)cc3c(c1O)/C(=C/NCCS(=O)(=O)O)C(=O)C(O)=C3C(C)C)/C(=C/NCCS(=O)(=O)O)C(=O)C(O)=C2C(C)C be said to have pIC50 at or above 5?
### Response Condition met

### Prompt Can Cc1cc2c(c(O)c1-c1c(C)cc3c(c1O)/C(=C/NC(C)(C)C(C)(C)C)C(=O)C(O)=C3C(C)C)/C(=C/NC(C)(C)C(C)(C)C)C(=O)C(O)=C2C(C)C be said to have pIC50 at or above 5?
### Response Condition met

### Prompt Can Cc1cc2c(c(O)c1-c1c(C)cc3c(c1O)/C(=C/NCCCCC(=O)O)C(=O)C(O)=C3C(C)C)/C(=C/NCCCCC(=O)O)C(=O)C(O)=C2C(C)C be said to have pIC50 at or above 5?
### Response Condition met

### Prompt Can Cc1cc2c(c(O)c1-c1c(C)cc3c(c1O)/C(=C/NCC(=O)O)C(=O)C(O)=C3C(C)C)/C(=C/NCC(=O)O)C(=O)C(O)=C2C(C)C be said to have pIC50 at or above 5?
### Response Condition not met

In the following, a different molecule is considered.
### Prompt Can Cc1cc2c(c(O)c1-c1c(C)cc3c(c1O)/C(=C/NCc1ccc4c(c1)OCO4)C(=O)C(O)=C3C(C)C)/C(=C/NCc1ccc3c(c1)OCO3)C(=O)C(O)=C2C(C)C be said to have pIC50 at or above 5?
### Response Condition not met

###

Would you mind telling me the reported pIC50 of each entry?
protocolSummary: cells
conditionDescription: Homo sapiens, HCT-116, 72 h
Description: Cytotoxicity against human HCT116 cells assessed as reduction in cell viability after 72 hrs by MTT assay
Answers are plain numbers, as −log10 of the molar value.

# example entries with known answers
### Prompt State the recorded pIC50 for this entry: Cc1cc2c(c(O)c1-c1c(C)cc3c(c1O)/C(=C/NCCCCC(=O)O)C(=O)C(O)=C3C(C)C)/C(=C/NCCCCC(=O)O)C(=O)C(O)=C2C(C)C
### Response 4.65

### Prompt State the recorded pIC50 for this entry: COC(=O)c1ccccc1N/C=C1\C(=O)C(O)=C(C(C)C)c2cc(C)c(-c3c(C)cc4c(c3O)/C(=C/Nc3ccccc3C(=O)OC)C(=O)C(O)=C4C(C)C)c(O)c21
### Response 4.43

### Prompt State the recorded pIC50 for this entry: Cc1cc2c(c(O)c1-c1c(C)cc3c(c1O)/C(=C/NCCCS(=O)(=O)O)C(=O)C(O)=C3C(C)C)/C(=C/NCCCS(=O)(=O)O)C(=O)C(O)=C2C(C)C
### Response 4.37

I would be grateful if you could provide pIC50 for each of the following entries.
1. Cc1cc2c(c(O)c1-c1c(C)cc3c(c1O)/C(=C/NCC(=O)O)C(=O)C(O)=C3C(C)C)/C(=C/NCC(=O)O)C(=O)C(O)=C2C(C)C
2. COC(=O)CCCN/C=C1\C(=O)C(O)=C(C(C)C)c2cc(C)c(-c3c(C)cc4c(c3O)/C(=C/NCCCC(=O)OC)C(=O)C(O)=C4C(C)C)c(O)c21 (stereo in doubt; 16)
3. Cc1cc2c(c(O)c1-c1c(C)cc3c(c1O)/C(=C/NCCCCCC(=O)O)C(=O)C(O)=C3C(C)C)/C(=C/NCCCCCC(=O)O)C(=O)C(O)=C2C(C)C
4. COC(=O)CCCCCN/C=C1\C(=O)C(O)=C(C(C)C)c2cc(C)c(-c3c(C)cc4c(c3O)/C(=C/NCCCCCC(=O)OC)C(=O)C(O)=C4C(C)C)c(O)c21

### Response
1. 4.57
2. 5.56
3. 4.64
4. 6.19

###

systemTested: Induced myeloid leukemia cell differentiation protein Mcl-1 (Homo sapiens, UniProt Q07820)
Sequence (Q07820 whole entry): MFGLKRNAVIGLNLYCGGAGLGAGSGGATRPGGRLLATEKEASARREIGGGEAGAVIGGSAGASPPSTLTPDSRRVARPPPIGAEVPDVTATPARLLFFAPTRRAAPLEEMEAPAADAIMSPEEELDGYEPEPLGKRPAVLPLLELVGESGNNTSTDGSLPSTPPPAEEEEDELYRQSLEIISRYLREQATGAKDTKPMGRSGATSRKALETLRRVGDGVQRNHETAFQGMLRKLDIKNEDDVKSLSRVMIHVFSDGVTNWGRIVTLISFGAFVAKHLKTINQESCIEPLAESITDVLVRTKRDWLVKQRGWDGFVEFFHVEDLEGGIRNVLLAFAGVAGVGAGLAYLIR
protocolSummary: Inhibition of FAM-Bid binding to human MCL1 expressed in Escherichia coli BL21 after 30 mins by fluorescence polarization assay
Threshold 1000 nM: IC50 strictly smaller gives rule met, otherwise rule not met.

These recorded examples may help you get a feel for the data.
### Prompt Does Cc1cc2c(c(O)c1-c1c(C)cc3c(c1O)/C(=C/NCC(=O)O)C(=O)C(O)=C3C(C)C)/C(=C/NCC(=O)O)C(=O)C(O)=C2C(C)C have IC50 strictly under 1000 nM?
### Response rule met

### Prompt Does COC(=O)CCCN/C=C1\C(=O)C(O)=C(C(C)C)c2cc(C)c(-c3c(C)cc4c(c3O)/C(=C/NCCCC(=O)OC)C(=O)C(O)=C4C(C)C)c(O)c21 (stereo in doubt; (-)-16) have IC50 strictly under 1000 nM?
### Response rule met

### Prompt Does Cc1cc2c(c(O)c1-c1c(C)cc3c(c1O)/C(=C/NCCCCC(=O)O)C(=O)C(O)=C3C(C)C)/C(=C/NCCCCC(=O)O)C(=O)C(O)=C2C(C)C have IC50 strictly under 1000 nM?
### Response rule met

---
### Prompt Does Cc1cc2c(c(O)c1-c1c(C)cc3c(c1O)/C(=C/NCCCC(=O)O)C(=O)C(O)=C3C(C)C)/C(=C/NCCCC(=O)O)C(=O)C(O)=C2C(C)C have IC50 strictly under 1000 nM?
### Response rule met

### Prompt Does COC(=O)CCCN/C=C1\C(=O)C(O)=C(C(C)C)c2cc(C)c(-c3c(C)cc4c(c3O)/C(=C/NCCCC(=O)OC)C(=O)C(O)=C4C(C)C)c(O)c21 (stereo in doubt; (+)-16) have IC50 strictly under 1000 nM?
### Response rule not met

###

protocolSummary: Cytotoxicity against human ovarian cancer cells assessed as cell growth inhibition after 48 hrs by SRB assay
Format: functional
conditionDescription: Cancer cell lines
quantityMeasured: GI50 (nM)
One number for each entry, in nM.

I would be grateful if you could provide GI50 for each of the following entries.
1. COC(=O)CCCN/C=C1\C(=O)C(O)=C(C(C)C)c2cc(C)c(-c3c(C)cc4c(c3O)/C(=C/NCCCC(=O)OC)C(=O)C(O)=C4C(C)C)c(O)c21 (stereo in doubt; 16)
2. COC(=O)CCCCN/C=C1\C(=O)C(O)=C(C(C)C)c2cc(C)c(-c3c(C)cc4c(c3O)/C(=C/NCCCCC(=O)OC)C(=O)C(O)=C4C(C)C)c(O)c21
3. COC(=O)CN/C=C1\C(=O)C(O)=C(C(C)C)c2cc(C)c(-c3c(C)cc4c(c3O)/C(=C/NCC(=O)OC)C(=O)C(O)=C4C(C)C)c(O)c21
4. CC1(C)CCC(CN2CCN(c3ccc(C(=O)NS(=O)(=O)c4ccc(NCC5CCOCC5)c([N+](=O)[O-])c4)c(Oc4cnc5[nH]ccc5c4)c3)CC2)=C(c2ccc(Cl)cc2)C1 [VENETOCLAX]
5. Cc1cc2c(C(C)C)c(O)c(O)c(C=O)c2c(O)c1-c1c(C)cc2c(C(C)C)c(O)c(O)c(C=O)c2c1O [GOSSYPOL]
6. COC(=O)CCCCCN/C=C1\C(=O)C(O)=C(C(C)C)c2cc(C)c(-c3c(C)cc4c(c3O)/C(=C/NCCCCCC(=O)OC)C(=O)C(O)=C4C(C)C)c(O)c21

### Response
1. 590
2. 1260
3. 1740
4. 3330
5. 3500
6. 2650
